Data credit: the Immune Epitope Database (IEDB)

- system_under_test: HLA-B*51:01
- method: IEDB peptide-MHC binding, purified MHC/competitive/radioactivity; filed as Kd, often an IC50 or EC50 that approximates it; bounds were set here for any values at or beyond the usual limits of such assays
- run_parameters: source organism: Dengue virus 4 Philippines/H241/1956
pKd by entry:
Interpret pKd as the negative base-10 log of the concentration measured in mol/L.

Worked examples, 4 sequences total:
{"columns": ["sequence", "pKd"],
 "data": [
  ["TPVHSWEDI", 4.80],
  ["LPVYLMTLMK", 5.15],
  ["MPLVMAWRT", 6.16],
  ["IPHDLMEFI", 7.69]
]}

Now turn to the next sequence.
The sequence listed as LAMGCYSQV has a reported pKd of 6.85
